Target Desc: human TRPV4 (Homo sapiens, UniProt Q9HBA0)
Construct: host or cells: tetracycline-inducible Flp-In T-REx 293 cells
Sequence (Q9HBA0 whole entry): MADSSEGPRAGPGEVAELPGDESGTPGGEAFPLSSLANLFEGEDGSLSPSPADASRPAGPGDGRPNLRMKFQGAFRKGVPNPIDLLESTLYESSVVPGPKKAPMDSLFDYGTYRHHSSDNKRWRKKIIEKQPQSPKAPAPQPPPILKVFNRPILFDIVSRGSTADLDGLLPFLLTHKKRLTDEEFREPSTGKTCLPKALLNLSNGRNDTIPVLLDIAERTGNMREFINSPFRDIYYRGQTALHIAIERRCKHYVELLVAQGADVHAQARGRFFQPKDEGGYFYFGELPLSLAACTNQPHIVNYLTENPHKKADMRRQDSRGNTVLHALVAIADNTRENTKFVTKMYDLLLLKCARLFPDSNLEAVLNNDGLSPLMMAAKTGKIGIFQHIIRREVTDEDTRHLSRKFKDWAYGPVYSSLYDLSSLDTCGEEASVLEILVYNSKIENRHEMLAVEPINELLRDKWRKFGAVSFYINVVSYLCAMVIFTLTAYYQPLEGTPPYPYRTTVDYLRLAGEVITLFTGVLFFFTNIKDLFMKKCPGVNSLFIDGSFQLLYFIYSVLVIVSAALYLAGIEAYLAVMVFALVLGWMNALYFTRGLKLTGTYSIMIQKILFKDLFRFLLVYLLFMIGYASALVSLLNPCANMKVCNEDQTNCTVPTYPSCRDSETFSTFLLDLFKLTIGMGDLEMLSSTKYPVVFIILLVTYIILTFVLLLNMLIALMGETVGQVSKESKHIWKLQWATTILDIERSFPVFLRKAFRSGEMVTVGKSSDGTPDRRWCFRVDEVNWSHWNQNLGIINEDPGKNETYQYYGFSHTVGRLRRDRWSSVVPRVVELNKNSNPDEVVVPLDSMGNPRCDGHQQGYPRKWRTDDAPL
Experimental Details: Hypotonicity-induced Ca2+ influx (Fluo-4, FDSS)
Type: cell-based
Experimental Context: Flp-In T-REx 293 cells expressing human TRPV4, examples listed under heading 'Human IC50<50 nM'
pIC50: −log10 of the molar value.
Recorded pIC50 by entry

// known answers, use as guide
Compound | pIC50
O=C(C(O)c1cccc(-c2cccc(C(F)(F)F)c2)c1)N1CCCc2nc(C3(c4cccc(Cl)c4)CC3)[nH]c(=O)c2C1 (stereo not shown) | > 7.30
O=C(C(O)c1cccc(C2CC2)c1)N1CCCc2nc(C3(c4cccs4)CC3)[nH]c(=O)c2C1 (stereo not shown) | > 7.30
CN(Cc1ccc2ccccc2c1)C(=O)c1csc(C2(c3nc4c(c(=O)[nH]3)CN(C(=O)[C@H](O)c3cccc(C(F)(F)F)c3)CCC4)CC2)c1 | > 7.30
CC(C)(C)c1cccc(-c2cccc([C@@H](O)C(=O)N3CCCc4nc(C5(c6cccs6)CC5)[nH]c(=O)c4C3)c2)c1 | > 7.30
O=C(Cc1cccc(SC(F)(F)F)c1)N1CCCc2nc(C3(c4ccccc4)CC3)[nH]c(=O)c2C1 | > 7.30

Short answer for "O=C(Cc1ccccc1Oc1ccccc1)N1CCCc2nc(C3(c4cccc(Cl)c4)CC3)[nH]c(=O)c2C1" : pIC50 was > 7.30

Short answer for O=C(C(O)c1cccc(-c2ccccc2C(F)(F)F)c1)N1CCc2nc(C3(c4ccccc4)CC3)[nH]c(=O)c2C1 (stereo not shown) : pIC50 was > 7.30
